- ASSAYED_TARGET: recombinant human CD38 (human, UniProt P28907 43-300, limits assumed)
- ASSAY_DETAILS: SPR (Biacore 8K), antibody captured, antigen injected;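 also: antibodies held on a CM5 chip through anti-human IgG Fc, antigen in 3-fold serial dilutions, 1 min association then 10 min dissociation at 25 °C, 1:1 Langmuir global fit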
READOUT_KIND: pKd
Notebook: values listed as pKd are -log10 of the concentration (mol/L).

For the binder shown here, 17F7 (antibody, human IgG1, kappa, V domains shown, Rabbit-human chimeric anti-CD38: rabbit VH and VL on human IgG1 and kappa constant regions) VH: QSVEESGGRLVTPGTPLTLTCTASGFSLSSYYMSWVRQAPGKGLEWIGFISKTAITYYASWARGRFTISKTSTAVDLKITSPTTEDTATYFCARVDAYSAGDLWGPGTLVTVSS VL: AQVLTQTPSSVSAAVGGTVTINCQASQSVYSDNRLSWFQQKSGQPPKLLIYSTSSLASGVPSRFSGSGSGTQFTLTISGVQSDDAASYYCQGEFICTSADCFVFGGGTEVVVKR , give the reported pKd. 8.12

Now consider 23D1 (antibody, human IgG1, kappa, V domains shown, Rabbit-human chimeric anti-CD38: rabbit VH and VL on human IgG1 and kappa constant regions) VH: QELVESGGGLFQPGGSLALTCKASGFSLSNIYVMCWVRQAPGKGLEWIACIGTGSGDTDYATWAKGRFTISKTSSTTVTLQMTSLTAADTATYFCARDPGAGTWNLWGPGTLVTVSS VL: DIVMTQTPSSVEAAVGGTVTIKCQASQTIGSRLAWYQQKPGQPPKLLIYSASTLASGVSSRFKGSGSGTQFTLTISDLDSADAATYYCQSYYYTSTSYPNAFGGGTEVVVKR . 9.17

Now consider 25E4 (antibody, human IgG1, kappa, V domains shown, Rabbit-human chimeric anti-CD38: rabbit VH and VL on human IgG1 and kappa constant regions) VH: QSLEESGGRLVTPGTPLTLTCTVSGIDLSIYTMAWVRQAPGKGLEYIGIISGYGTTYYATWAKGRFIVSKTSTTVDLKITSPTTEDTATYFCVRTTVQSTDLWGPGTLVTVSS VL: DIVMTQTPASVEAAVGGTVTINCQASQNIYSNLAWYQQKPGQRPKLLIYKASTLASGVSSRFKGSGSGTEFTLTISDLASADAATYYCQSYYGATSSSFGYGFGGGTEVVVKR . 10.15
